Biological target: BRD4(1) (Homo sapiens, UniProt O60885)
Experiment: Isothermal titration calorimetry (ITC)
Conditions: ITC Ka, BRD4(1)
quantity: pKd
Lab note — pKd values are minus log10 of concentrations in M.

Q: Consider the compound shown here: Cc1noc(C)c1-c1ccc(NC[C@H](C)N2CCOCC2)c([N+](=O)[O-])c1 What is its recorded pKd?
A: 5.92

Q: Now give it for COc1ccc(CCc2nc3cc(-c4c(C)noc4C)ccc3n2C[C@@H](C)N2CCOCC2)cc1F too.
A: 6.22

Q: Now give it for Cc1noc(C)c1-c1ccc2c(c1)nc(CCc1ccc(F)cc1)n2CCN1CCOCC1 too.
A: 6.32

Q: Now give it for Cc1noc(C)c1-c1ccc2c(c1)nc(CCc1nc3ccccc3s1)n2CCN1CCOCC1 too.
A: 6.18

Q: Now give it for Cc1noc(C)c1-c1ccc2c(c1)nc(CCn1ccc3ccccc31)n2C[C@H](C)N1CCOCC1 too.
A: 6.16

Q: Now give it for Cc1ccc(CCc2nc3cc(-c4c(C)noc4C)ccc3n2CCN2CCOCC2)cc1 too.
A: 6.26

Q: Now give it for Cc1noc(C)c1-c1ccc2c(c1)nc(CCc1ccccc1)n2CCN1CCCCC1 too.
A: 6.02

Q: Now give it for Cc1noc(C)c1-c1ccc2c(c1)nc(CCn1ccc3ccccc31)n2C[C@@H](C)N1CCOCC1 too.
A: 6.27
